Data provenance is ChEMBL document CHEMBL4513216.

# System: Plasmodium berghei
# ASSAY METHOD TEXT: Screen against P. berghei liver stage (PbLuc), transformed with Luciferase, at 10uM
# Type: functional, HepG2
# CONDITION PARAMETERS: tested at 10 uM
About 8,600 (12%) of roughly 69,000 compounds showed an effect of 50% or more. Many of the other results were omitted from the sample, so strong results are more common in it than they were.
ENDPOINT NAME: INHIBITION (%)
Form entry: value (%) — number only.

Recorded INHIBITION (compound `Cn1cnnc1C1CCN(c2cncc(-n3cccn3)n2)CC1` ): -8.19

Recorded INHIBITION (compound c1ccc(Oc2cccc(OC34CCCN(CC3)C4)c2)cc1 (stereo unspecified) ): 65.7

Recorded INHIBITION (compound Cc1cnccc1CNCc1ccc(OC23CCCN(CC2)C3)cc1 (stereo unspecified) ): 21.525

Recorded INHIBITION (compound `Cc1cc(-c2cnc(NC3CC3)nc2-c2ccco2)on1` ): -21.4

Recorded INHIBITION (compound `Cc1cc(-c2cnc(NC3CCCC3)nc2-c2ccoc2)on1` ): 41.2

Recorded INHIBITION (compound N#Cc1cccc(OC23CCCN(CC2)C3)c1 (stereo unspecified) ): 21.2

Recorded INHIBITION (compound Cc1cc(C)n(C2CN(CC(O)c3ccc(C(F)(F)F)cc3)C2)n1 (stereo unspecified) ): -24.2

Recorded INHIBITION (compound `Cc1cc(-c2cnc(NC3CCCC3)nc2-c2ccco2)on1` ): -18.9

Recorded INHIBITION (compound Cc1occc1C(=O)N1CCn2c(COCC3CC3)cnc2C1C (stereo unspecified) ): 39.3

Recorded INHIBITION (compound CC1CCCCN1Cc1ccc(-c2ccccc2C(=O)O)cc1 (stereo unspecified) ): 25.3

Recorded INHIBITION (compound `Cc1cc(-c2cnc(NC3CC3)nc2-c2ccoc2)on1` ): 3.91
